Provenance of the data: ChEMBL document CHEMBL5390237

Measured inhibition, listed per entry for reference.
- SYSTEM_UNDER_TEST: UniProtKB Q92769
- EXPERIMENT_NOTES: Inhibition of full-length recombinant human C-terminal GST tagged HDAC2 expressed in Sf9 insect cells using aminoluciferin peptide substrate at 100 nM preincubated for 3 hrs followed by substrate addition and measured after 30 mins by HDAC-Glo I/II chemiluminescence assay
- ASSAY_SETUP: time 3.5 hrs
Enter your answer as a number in %; do not include the unit.

A selection of reference data follows.
Nc1ccc(-c2cccs2)cc1NC(=O)CCc1cn(Cc2cccc(-c3ccccc3)c2)nn1    0
Nc1ccc(-c2cccs2)cc1NC(=O)c1cccc(-c2cn(CCc3ccccc3Cl)nn2)c1    0
Nc1ccc(-c2ccccc2)cc1NC(=O)CCc1cn(-c2ccccc2-c2ccccc2)nn1    2
Nc1ccc(-c2cccnc2)cc1NC(=O)CCc1cn(-c2ccc(I)cc2)nn1    1
Nc1ccc(-c2cccs2)cc1NC(=O)CCc1cn(Cc2ccc3ccccc3c2)nn1    30
COc1ccc(-n2cc(CCC(=O)Nc3cc(-c4cccnc4)ccc3N)nn2)cc1    9
CCc1ccc(Cn2cc(CCC(=O)Nc3cc(-c4ccccc4)ccc3N)nn2)cc1    1
Nc1ccc(-c2cccs2)cc1NC(=O)c1ccc(-c2cn(CCCCC(=O)O)nn2)cc1    36

Ask: Item: Nc1ccc(-c2ccccc2)cc1NC(=O)CCc1cn(Cc2cccc3ccccc23)nn1 Test system: UniProtKB Q92769 Read-out: inhibition Value: ?
Reply: 9

Ask: Another molecule to look at: Nc1ccc(-c2cccs2)cc1NC(=O)c1cccc(-c2cn(Cc3nc4ccccc4[nH]3)nn2)c1
Reply: 32

Ask: Another molecule to look at: Nc1ccc(-c2cccs2)cc1NC(=O)c1cn(CCc2cccc(Cl)c2)nn1
Reply: 2

Ask: Another molecule to look at: Nc1ccc(-c2cccs2)cc1NC(=O)c1cn(CCc2ccc(Cl)cc2)nn1
Reply: 0

Ask: Another molecule to look at: Nc1ccc(-c2cccs2)cc1NC(=O)c1ccc(-c2cn(Cc3nc4ccccc4[nH]3)nn2)cc1
Reply: 37

Ask: Another molecule to look at: COc1ccc(Cn2cc(C(=O)Nc3cc(-c4cccs4)ccc3N)nn2)cc1
Reply: 17

Ask: Another molecule to look at: Nc1ccc(-n2cc(C(=O)Nc3cc(-c4ccc(F)cc4)ccc3N)nn2)cc1
Reply: 42

====

- SYSTEM_UNDER_TEST: Histone deacetylase 2 (Homo sapiens)
- Sequence (Q92769 whole entry): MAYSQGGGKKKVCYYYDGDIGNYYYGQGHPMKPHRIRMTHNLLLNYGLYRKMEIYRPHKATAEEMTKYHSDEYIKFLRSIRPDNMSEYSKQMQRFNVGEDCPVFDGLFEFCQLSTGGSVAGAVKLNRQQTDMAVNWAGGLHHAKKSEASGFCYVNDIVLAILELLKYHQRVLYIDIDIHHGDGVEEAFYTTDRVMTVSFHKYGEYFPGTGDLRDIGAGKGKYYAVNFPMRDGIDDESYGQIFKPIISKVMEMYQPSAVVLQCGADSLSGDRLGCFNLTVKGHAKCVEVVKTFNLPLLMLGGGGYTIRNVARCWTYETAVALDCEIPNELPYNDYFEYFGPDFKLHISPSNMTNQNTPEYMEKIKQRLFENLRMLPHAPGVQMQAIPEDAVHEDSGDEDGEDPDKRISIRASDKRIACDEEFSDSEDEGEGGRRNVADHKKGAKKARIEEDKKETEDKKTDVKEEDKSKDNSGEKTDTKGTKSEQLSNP
- EXPERIMENT_NOTES: Inhibition of full-length recombinant human C-terminal GST tagged HDAC2 expressed in Sf9 insect cells using aminoluciferin peptide substrate at 100 nM preincubated for 3 hrs followed by substrate addition and measured after 30 mins by HDAC-Glo I/II chemiluminescence assay
- ASSAY_SETUP: time 3.5 hrs
Measured inhibition, listed per entry for reference.
Enter your answer as a number in %; do not include the unit.

A selection of reference data follows.
Nc1ccc(-c2ccccc2)cc1NC(=O)CCc1cn(CCN2CCOCC2)nn1    0
Nc1ccc(-c2ccsc2)cc1NC(=O)c1cn(CCc2ccsc2)nn1    0
Nc1ccc(-c2cccs2)cc1NC(=O)CCc1cn(CCc2ccc([N+](=O)[O-])cc2)nn1    27

Ask: I am curious: what inhibition value has been reported for Nc1ccc(-c2cccs2)cc1NC(=O)c1ccc(-c2cn(CCC34CC5CC(CC(C5)C3)C4)nn2)cc1 ?
Reply: 5

Ask: Another compound to look at: Nc1ccc(-c2ccsc2)cc1NC(=O)c1cn(CCCCCc2ccccc2)nn1
Reply: 0
